Where do these numbers come from? They come from patent US11617726B2.

- System: Acinetobacter baumannii isolates
- ASSAY NAME: Antimicrobial susceptibility test, disc diffusion method (CLSI M100-S24)
- Format: cell-based
- Parameters: key: “NZ” indicated that no zone of inhibition was observed
- TEST SETTINGS: isolate AB6; disc diffusion

[
  {
    "COMPOUND": "CO[C@@]1(NC(=O)Cc2cccs2)C(=O)N2C(C(=O)O)=C(COC(N)=O)CS[C@@H]21 [FOX, Cefoxitin]",
    "SYSTEM NAME": "Acinetobacter baumannii isolates",
    "Inhibition zone": "NZ"
  },
  {
    "COMPOUND": "O=C(N[C@H](CO)[C@H](O)c1ccc([N+](=O)[O-])cc1)C(Cl)Cl [CHL, Chloramphenicol]",
    "SYSTEM NAME": "Acinetobacter baumannii isolates",
    "Inhibition zone": "NZ"
  },
  {
    "COMPOUND": "CC1(C)S[C@@H]2[C@H](NC(=O)[C@H](N)c3ccc(O)cc3)C(=O)N2[C@H]1C(=O)O [AMX, Amoxicillin]",
    "SYSTEM NAME": "Acinetobacter baumannii isolates",
    "Inhibition zone": "NZ"
  }
]
